Kindly supply the reported relative growth recovery values for the records listed here.
Tested on: HEK293FT dCK*-IKZF1
experiment_summary: relative growth recovery (pomalidomide 10 uM = 100%, DMSO = 0%); higher = more growth rescue (IKZF1 fusion degradation)
measurement_setup: compound concentration: 5 uM; AraC concentration: 0.3 uM; overnight pretreatment + 4 days AraC
In all, about 1,000 compounds were measured (“relative growth recovery (pomalidomide 10 uM = 100%, DMSO = 0%)”: median about -1.6, highest 2% from about 21 on). This excerpt belongs to a sample that is enriched for the highest values.
Report the value in % with no unit label.

Challenge: For the molecule "CC(=O)Nc1ccc(S(=O)(=O)Nc2ncccn2)cc1" , what relative growth recovery is on record?
Response given: -3.27

Challenge: For the molecule "Cc1ccnc(NS(=O)(=O)c2ccc(NC(=O)c3ccccc3C)cc2)n1" , what relative growth recovery is on record?
Response given: -1.84

Challenge: For the molecule "CCCc1cnc(Nc2cccc(C3CCN(C(=O)Cn4c(CC(C)C)nc5ccccc54)CC3)n2)s1" , what relative growth recovery is on record?
Response given: -2.13

Challenge: For the molecule CN(CCN1CCC(C(=O)O)CC1)c1cccc2c1C(=O)N(C1CCC(=O)NC1=O)C2=O (stereo not given) , what relative growth recovery is on record?
Response given: 5.47

Challenge: For the molecule "Cc1cc(NS(=O)(=O)c2ccc(NC(=O)c3cccnc3)cc2)nc(C)n1" , what relative growth recovery is on record?
Response given: 1.28

Challenge: For the molecule CC(=O)N1CCCC(c2csc(Nc3ccc(C)cn3)n2)C1 (stereo not given) , what relative growth recovery is on record?
Response given: -5.95

Challenge: For the molecule "Cc1ccnc(Nc2nc(-c3sc(NC(=O)c4ccccc4)nc3C)cs2)c1" , what relative growth recovery is on record?
Response given: 111

Challenge: For the molecule "Cc1ccc(Nc2nc(-c3sc(NC(=O)c4ccccc4)nc3C)cs2)nc1" , what relative growth recovery is on record?
Response given: 111

Challenge: For the molecule "COc1ccc(-c2csc(Nc3ccc(S(=O)(=O)Nc4cc(OC)nc(OC)n4)cc3)n2)cc1" , what relative growth recovery is on record?
Response given: -2.94

Challenge: For the molecule "Cc1cc(C)nc(NS(=O)(=O)c2ccc(NC(=S)NC(=O)/C=C/c3ccccc3)cc2)n1" , what relative growth recovery is on record?
Response given: -1.71
